This collection of values is drawn from ChEMBL document CHEMBL1142899.

- ASSAY_PROCEDURE: Volume of distribution in rat at 5 umol/kg, iv
- Assay type: ADME, organism-based
- TEST_CONTEXT: in vivo, read-out: Vbeta
Measured Vd accompanies every entry in the list below.
MEASURED_ATTRIBUTE: Vd (L/kg)

Nc1ncnc2nc(-c3ccc(N4CCOCC4)nc3)cc(-c3cccc(Br)c3)c12
1
CN(C)c1ccc(-c2c(N)ncnc2C#Cc2ccc(N3CCOCC3)nc2)cc1
0.7

---

- Tested on: Rattus norvegicus
- ASSAY_PROCEDURE: Reduction of formalin-induced nociception in rat at 10 umol/kg, ip by paw flinching test
- Format: functional
- Parameters: scale not given: the % may be the effect or the level left
MEASURED_ATTRIBUTE: Activity (%)

Nc1ncnc(C#Cc2ccc(N3CCOCC3)nc2)c1-c1ccc(Cl)cc1
29
Nc1ncnc(C#Cc2ccc(N3CCOCC3)nc2)c1-c1cccs1
44
CN(C)c1ccc(-c2c(N)ncnc2C#Cc2ccc(N3CCOCC3)nc2)cc1
44
Nc1ncnc(C#Cc2ccc(N3CCOCC3)nc2)c1-c1ccc2c(c1)OCO2
47
Nc1ncnc(C#Cc2ccc(N3CCOCC3)nc2)c1-c1cc2ccccc2o1
36
CN(C)c1ccc(C#Cc2ncnc(N)c2-c2ccc(Cl)cc2)cn1
20
Nc1ncnc(C#Cc2cnc(N3CCOCC3)nc2)c1-c1ccc(Cl)cc1
36
Nc1ncnc(C#Cc2ccc(N3CCOCC3)nc2)c1-c1cc2ccccc2s1
49
Nc1ncnc(C#Cc2ccc(N3CCOCC3)cc2)c1-c1ccc(Cl)cc1
20
COCCN(C)c1ccc(C#Cc2ncnc(N)c2-c2ccc(Cl)cc2)cn1
48
Nc1ncnc(C#Cc2cncc(N3CCOCC3)c2)c1-c1ccc(Cl)cc1
49
